B1: library; numbered along this chain (parent)
chain: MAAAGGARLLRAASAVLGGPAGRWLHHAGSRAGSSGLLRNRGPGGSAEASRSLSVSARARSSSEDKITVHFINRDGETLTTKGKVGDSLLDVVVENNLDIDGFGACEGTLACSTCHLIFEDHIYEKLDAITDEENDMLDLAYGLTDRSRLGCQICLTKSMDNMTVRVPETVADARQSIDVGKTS

# Variants of: B1
# assay-name: scaled log2 fold change in cell abundance, elesclomol vs control (0 = silent mean, 1 = nonsense mean) (scaled log2 ratio); higher = higher viability under elesclomol (loss of FDX1 cuproptosis function);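 also: variant abundance is its share of total variant reads in each endpoint sample, from next-generation sequencing of the integrated ORF PCR-amplified out of genomic DNA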
# stated-conditions: with ABC1 FDX1 KO; elesclomol 5 nM; glucose 10 mM; 14 days

{"columns": ["mutant-label", "scaled log2 fold change"],
 "data": [
  ["N162F", 0.167],
  ["L110C", 0.439],
  ["G18L", -0.655],
  ["V180K", -0.341],
  ["A49F", 0.00966],
  ["A59W", 0.216],
  ["R41L", 0.167],
  ["I72M", -0.0135],
  ["M160I", 0.353],
  ["D146H", -0.228]
]}

FYI, the data here is from the supplement of paper PMC12855868.
